Assign EC50 to each entry below.
Molecular target: T1, Hu FcRn (BPS Bioscience) (human, UniProt P55899 24-297; P61769 21-119)
T1 construct: Bought recombinant protein coated on ELISA plates; also called human FcRn; human neonatal Fc receptor
T1 sequence (P55899 24-297 limits assumed, chain 1 of 2): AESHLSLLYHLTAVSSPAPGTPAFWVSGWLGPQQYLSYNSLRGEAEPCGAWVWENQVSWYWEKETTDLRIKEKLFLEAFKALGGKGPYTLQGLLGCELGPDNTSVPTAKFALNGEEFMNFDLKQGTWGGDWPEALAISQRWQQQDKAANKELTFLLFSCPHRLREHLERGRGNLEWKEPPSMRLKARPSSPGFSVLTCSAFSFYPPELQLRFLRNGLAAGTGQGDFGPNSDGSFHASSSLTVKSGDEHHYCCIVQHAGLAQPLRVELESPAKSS
T1 sequence (P61769 21-119 limits assumed, chain 2 of 2): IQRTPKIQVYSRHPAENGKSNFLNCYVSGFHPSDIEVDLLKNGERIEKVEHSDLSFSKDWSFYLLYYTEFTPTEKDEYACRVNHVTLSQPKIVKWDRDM
Assay: optimized ELISA on FcRn, pH 7.4
Give just the numeric value; µM need not be written.

Task item: Query: EC50; subject: FcRn-16 (designed binder, AFFIMER (stefin A variant)) MIPRGLSEAKPATPEIQEIVDKVKPQLEEKTNETYGKLEAVQYKTQVLAKHHHHKHQHSTNYYIKVRAGDNKYMHLKVFNGPVFLHNESHQADRVLTGYQVDKNKDDELTGFHHHHHH
Reply: 48.6

Task item: // next record FcRn-48 (designed binder, AFFIMER (stefin A variant)) MIPRGLSEAKPATPEIQEIVDKVKPQLEEKTNETYGKLEAVQYKTQVLAKPKYHHHDISTNYYIKVRAGDNKYMHLKVFNGPGHHAKPHRWADRVLTGYQVDKNKDDELTGFHHHHHH
Reply: 79.9
